B1: EPB41L3 (parent)
chain: SMQCKVILLDGSEYTCDVEKRSRG

Variants of: B1
method: protein stability index of a GFP-peptide fusion (GPS, HEK-293T) (PSI 1-6); higher = more stable;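 further: lentivirally expressed fusions sorted by FACS into six bins by GFP to DsRed ratio, PSI derived from sequencing read proportions per bin multiplied by bin number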
experimental conditions: c terminus: a fixed tail appended
Binary classification by protein stability index, with 3 as an inclusive lower bound for class 1; all other cases are class 0.

Please review the entries below; each comes with its answer.
V18Q = class 1
D17W = class 0

State whether the measured protein stability index reaches 3, counting equality as reaching it, for G11H
class 1

State whether the measured protein stability index reaches 3, counting equality as reaching it, for R23K
class 1

State whether the measured protein stability index reaches 3, counting equality as reaching it, for G11Y
class 0

State whether the measured protein stability index reaches 3, counting equality as reaching it, for I7W
class 1

State whether the measured protein stability index reaches 3, counting equality as reaching it, for V18K
class 1

State whether the measured protein stability index reaches 3, counting equality as reaching it, for I7R
class 1
